target: Vasopressin V1a/V2 (Homo sapiens) (UniProt P30518+P37288)
Sequence (P30518 whole entry, looked up): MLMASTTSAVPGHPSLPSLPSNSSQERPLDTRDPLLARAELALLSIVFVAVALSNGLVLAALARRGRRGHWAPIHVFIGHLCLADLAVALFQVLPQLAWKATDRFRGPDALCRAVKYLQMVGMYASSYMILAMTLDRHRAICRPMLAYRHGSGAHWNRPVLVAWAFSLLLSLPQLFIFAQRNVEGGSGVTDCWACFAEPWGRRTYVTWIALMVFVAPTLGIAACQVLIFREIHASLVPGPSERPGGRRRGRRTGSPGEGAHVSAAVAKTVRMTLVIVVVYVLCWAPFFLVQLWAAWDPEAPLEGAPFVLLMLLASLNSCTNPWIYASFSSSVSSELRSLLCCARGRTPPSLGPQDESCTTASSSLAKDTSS
Sequence (P37288 whole entry, looked up): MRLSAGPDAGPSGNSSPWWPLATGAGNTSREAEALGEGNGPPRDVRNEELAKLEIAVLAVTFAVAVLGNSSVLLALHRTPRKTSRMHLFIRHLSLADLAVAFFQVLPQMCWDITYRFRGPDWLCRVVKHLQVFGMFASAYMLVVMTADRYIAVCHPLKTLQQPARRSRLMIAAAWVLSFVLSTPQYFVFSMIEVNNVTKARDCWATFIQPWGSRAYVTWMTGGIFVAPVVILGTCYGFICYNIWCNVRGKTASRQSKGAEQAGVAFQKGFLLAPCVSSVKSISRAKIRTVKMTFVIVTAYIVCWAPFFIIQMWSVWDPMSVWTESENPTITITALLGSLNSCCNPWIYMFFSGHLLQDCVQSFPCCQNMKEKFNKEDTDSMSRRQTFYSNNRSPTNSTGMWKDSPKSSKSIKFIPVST
test.name: Selectivity ratio of EC50 for human vasopressin V2 receptor to EC50 for human vasopressin V1a receptor
Bridge positions count the residues as written; N and C are the ends. Square brackets hold non-standard residues; d marks the D form. Peptide text beside a SMILES is read from it. Orn(iPr) = CC(C)NCCC[C@H](N)C(=O)O; 2Thi = N[C@@H](Cc1cccs1)C(=O)O; Dab = NCC[C@H](N)C(=O)O
measurement.type: Ratio EC50

Ratio EC50 in this record for CC[C@H](C)[C@@H]1NC(=O)[C@H](Cc2cccs2)NC(=O)[C@@H](N)CSSC[C@@H](C(=O)N2CCC[C@H]2C(=O)N[C@@H](CCCNC(C)C)C(=O)NCC(N)=O)NC(=O)[C@H](CC(N)=O)NC(=O)[C@H](CC(N)=O)NC1=O (H-C[2Thi]INNCP[Orn(iPr)]G-NH2; disulfide 1-6) : > 710

Now turn to the next compound.
Per the records, this compound ( CC[C@H](C)[C@@H]1NC(=O)[C@H](Cc2cnc[nH]2)NC(=O)[C@@H](N)CSSC[C@@H](C(=O)N2CCC[C@H]2C(=O)N[C@@H](CCN)C(=O)NCC(N)=O)NC(=O)[C@H](CC(N)=O)NC(=O)[C@H](CCC(N)=O)NC1=O (H-CHIQNCP[Dab]G-NH2; disulfide 1-6) ) has Ratio EC50 equal to > 19
